# STUDY SYSTEM: mixture of three Der p 2 specific recombinant human IgE clones H10, H12, P4E (human) (UniProt P01854)
# Sequence (P01854 other isoform, or with tags, fused parts or gaps): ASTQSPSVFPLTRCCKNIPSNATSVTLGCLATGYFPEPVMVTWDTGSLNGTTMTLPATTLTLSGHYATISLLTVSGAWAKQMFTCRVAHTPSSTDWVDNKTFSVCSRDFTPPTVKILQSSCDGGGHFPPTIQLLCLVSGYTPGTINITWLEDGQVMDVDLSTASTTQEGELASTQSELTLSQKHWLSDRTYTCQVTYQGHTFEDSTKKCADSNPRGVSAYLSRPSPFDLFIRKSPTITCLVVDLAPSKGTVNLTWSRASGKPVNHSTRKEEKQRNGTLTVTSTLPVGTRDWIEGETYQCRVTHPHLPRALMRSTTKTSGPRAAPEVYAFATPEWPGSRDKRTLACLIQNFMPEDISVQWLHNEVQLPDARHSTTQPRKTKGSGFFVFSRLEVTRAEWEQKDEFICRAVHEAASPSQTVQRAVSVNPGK
# MEASUREMENT PROTOCOL: RBL-SX38 IgE displacement, FACS
MEASURED METRIC: Max effect/effect 1 µM (%)

[[record]]
binder = "A1A1(G4S)4 (VHH) EVQLLESGGGLVQPGGSLRLSCAASGFTFGNYDMAWVRQAPGKRPEWVSSIDTGGDITHYADSVKGRFTISRDNAKNTLYLQMNSLRPEDTAVYWCATDEEYALGPNEFDYYGQGTLVTVSGGGGSGGGGSGGGGSGGGGSEVQLLESGGGLVQPGGSLRLSCAASGFTFGNYDMAWVRQAPGKRPEWVSSIDTGGDITHYADSVKGRFTISRDNAKNTLYLQMNSLRPEDTAVYWCATDEEYALGPNEFDYYGQGTLVTVS"
unit_label = "%"
reading = 45

[[record]]
binder = "A1B2(G4S)4 (bispecific antibody) EVQLLESGGGLVQPGGSLRLSCAASGFTFGNYDMAWVRQAPGKRPEWVSSIDTGGDITHYADSVKGRFTISRDNAKNTLYLQMNSLRPEDTAVYWCATDEEYALGPNEFDYYGQGTLVTVSGGGGSGGGGSGGGGSGGGGSQVQLVESGGGLVQAGGSLRLSCAVFGSTFSNNVADWYRQAPGKQRELVARISASGATREYGDSVKGRFTISRDDAKNTMYLQMNNLKPEDTAVYRCHKIEWEDLSRKDYWGQGTQVTVS"
unit_label = "%"
reading = 100

[[record]]
binder = "A1D2(G4S)4 (bispecific antibody) EVQLLESGGGLVQPGGSLRLSCAASGFTFGNYDMAWVRQAPGKRPEWVSSIDTGGDITHYADSVKGRFTISRDNAKNTLYLQMNSLRPEDTAVYWCATDEEYALGPNEFDYYGQGTLVTVSGGGGSGGGGSGGGGSGGGGSDVQLQESGGGLVEAGGSLRLSCVASGRTFSGWSMGWFRQAPGKEREFVAAISWVGSWIGGTVYSNSVKGRFTISRDNARTTVYLQMNSLKPEDTAVYFCAAANSETPRIFASEYDYWGQGTQVTVS"
unit_label = "%"
reading = 98

[[record]]
binder = "A1B1(G4S)4 (bispecific antibody) EVQLLESGGGLVQPGGSLRLSCAASGFTFGNYDMAWVRQAPGKRPEWVSSIDTGGDITHYADSVKGRFTISRDNAKNTLYLQMNSLRPEDTAVYWCATDEEYALGPNEFDYYGQGTLVTVSGGGGSGGGGSGGGGSGGGGSQVQLQESGGGLVQTGGSLRLSCAVHGRTFSNTGMGWFRQAPGNERQFVAIISPSGTSTYYADSVKGRFTISRDPAKNTVYLQMNSLKMDDTAVYYCAASYGSNWSTLRHQRRNEYDAWGQGTQVAVS"
unit_label = "%"
reading = 100


(P) sdAb F3 (VHH) VHH: DVQLQESGGGLVQAGGSLKLSCAASRGSLSRWDVAWFRQAPGKERSFVTRISWSGTTSYYADAVKGRFAISRDNAKNTVYLQMNSLKPEDTAVYYCAVALYGNRGYYDVNAHSYWGQGTQVTVS
(Q) sdAb A1 (VHH) VHH: EVQLLESGGGLVQPGGSLRLSCAASGFTFGNYDMAWVRQAPGKRPEWVSSIDTGGDITHYADSVKGRFTISRDNAKNTLYLQMNSLRPEDTAVYWCATDEEYALGPNEFDYYGQGTLVTVSS
(R) sdAb F6 (VHH) VHH: DVQLQESGGGLVQAGGSLRLSCAASGLTFGSYDMGWYRQAPGKQRELVGRIRNDGITYYADSVKGRFTMSRDNAKNTVYLQMNSLKPEDTAVYYCAADGTGLGHYDYWGQGTQVTVS
Query: Descending sort on Max effect/effect 1 µM required. Show the ranking through the labels, in the order asked for.
Response: Q, R, P

Taken from patent US20250171562A1.
